What pKd was measured for each of the following?
- test-target: T1, human CD3E&G complex (Sino Biological Inc., CT041-H0305H) (human, UniProt P07766 23-126; P09693 23-116)
- T1 construct: bought heterodimer; also called human CD3E&G antigen
- T1 sequence (P07766 23-126, chain 1 of 2): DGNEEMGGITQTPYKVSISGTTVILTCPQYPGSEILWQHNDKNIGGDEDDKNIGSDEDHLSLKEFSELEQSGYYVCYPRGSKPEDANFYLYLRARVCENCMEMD
- T1 sequence (P09693 23-116, chain 2 of 2): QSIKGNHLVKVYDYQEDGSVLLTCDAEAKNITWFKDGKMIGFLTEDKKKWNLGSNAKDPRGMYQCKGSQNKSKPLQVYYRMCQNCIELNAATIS
- assay-text: BLI, antibody on sensor
Give bare numbers, as −log10 of the molar value.

hzsp34.78 (antibody, human IgG1, lambda, L234A L235A, V domains shown, CDR mutant of hzsp34.24; IgG1 L234A L235A, lambda) VH: EVQLVESGGGLVQPGGSLKLSCAASGFTFGTYAMNWVRQASGKGLEWVGRIRSKYNNYATYYADSVKDRFTISRDDSKSTLYLQMNSLKTEDTAVYYCARHGNFGQSYVSWFAYWGQGTTVTVSS VL: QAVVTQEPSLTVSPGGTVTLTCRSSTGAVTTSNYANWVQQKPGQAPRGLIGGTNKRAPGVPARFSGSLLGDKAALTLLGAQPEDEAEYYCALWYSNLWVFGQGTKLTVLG = 8.05

Input: Look up pKd: hzsp34.108 (antibody, human IgG1, lambda, L234A L235A, V domains shown, CDR mutant of hzsp34.24; IgG1 L234A L235A, lambda) VH: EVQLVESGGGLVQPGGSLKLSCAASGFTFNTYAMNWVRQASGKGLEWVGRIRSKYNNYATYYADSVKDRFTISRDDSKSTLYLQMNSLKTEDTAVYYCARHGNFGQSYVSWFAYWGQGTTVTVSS VL: QAVVTQEPSLTVSPGGTVTLTCRSSTGAVTTSNYANWVQQKPGQAPRGLIGGTNKRAPGVPARFSGSLLGDKAALTLLGAQPEDEAEYYCALWASNLWVFGQGTKLTVLG
Output: 8.14
